The values you see were collected from paper PMC10683482.

target: serum polyclonal antirhamnose antibodies (human IgG); assay: BLI affinity of rhamnose probes for polyclonal human IgG; assay type: binding; details: 52.5 µM IgG; read-out: Kd
Reported Kd by item:
Measure: Kd (µM)

>>> recorded_number("C[C@@H]1O[C@@H](OCc2cn(CCOCCNC(=O)OCCOCCOCCOCCOCCOCCOCCOCCNC(=O)CCCC[C@@H]3SC[C@@H]4NC(=O)N[C@@H]43)nn2)[C@H](O)[C@H](O)[C@H]1O")
81
>>> recorded_number("C[C@@H]1O[C@H](SCc2cn(CCOCCNC(=O)OCCOCCOCCOCCOCCOCCOCCOCCNC(=O)CCCC[C@@H]3SC[C@@H]4NC(=O)N[C@@H]43)nn2)[C@H](O)[C@H](O)[C@H]1O")
42
>>> recorded_number("C[C@@H]1O[C@@H](SCc2cn(CCOCCNC(=O)OCCOCCOCCOCCOCCOCCOCCOCCNC(=O)CCCC[C@@H]3SC[C@@H]4NC(=O)N[C@@H]43)nn2)[C@H](O)[C@H](O)[C@H]1O")
68

----------
target: monoclonal anti-23F antibody; test: BLI affinity of rhamnose probes for monoclonal anti-23F; assay type: binding, human; settings: average of three anti-23F concentrations; read-out: Avg Kd
pKd: −log10 of the molar value.
Form field: pKd (one value per entry).
Measure: pKd

>>> recorded_number("C[C@@H]1O[C@@H](OCc2cn(CCOCCNC(=O)OCCOCCOCCOCCOCCOCCOCCOCCNC(=O)CCCC[C@@H]3SC[C@@H]4NC(=O)N[C@@H]43)nn2)[C@H](O)[C@H](O)[C@H]1O")
5.20
>>> recorded_number("C[C@@H]1O[C@@H](SCc2cn(CCOCCNC(=O)OCCOCCOCCOCCOCCOCCOCCOCCNC(=O)CCCC[C@@H]3SC[C@@H]4NC(=O)N[C@@H]43)nn2)[C@H](O)[C@H](O)[C@H]1O")
5.24

----------
system: human serum antirhamnose antibody (IgG and IgM); test: ELISA covalent engagement of serum anti-rhamnose antibody; type: binding; details: 2 μM compound, 2% human serum, 48 h; rhamnose 100 mM added after incubation
Measure: antibody binding signal, quench control

>>> result("C[C@@H]1O[C@@H](OCc2cn(CCOCCNC(=O)OCCOCCOCCOCCOCCOCCOCCOCCNC(=O)CCCC[C@@H]3SC[C@@H]4NC(=O)N[C@@H]43)nn2)[C@H](O)[C@H](O)[C@H]1O [compound 1]")
"baseline signal"
>>> result("C[C@@H]1O[C@@H](SCc2cn(CCOCCNC(=O)OCCOCCOCCOCCOCCOCCOCCOCCNC(=O)CCCC[C@@H]3SC[C@@H]4NC(=O)N[C@@H]43)nn2)[C@H](O)[C@H](O)[C@H]1O [compound 2]")
"baseline signal"

----------
The entries below come with measured Kd values attached.
molecular target: serum polyclonal antirhamnose antibodies (human IgG); assay: BLI affinity of rhamnose probes for polyclonal human IgG; format: binding; conditions: average of three IgG concentrations; read-out: Avg Kd
Measure: Kd (µM)

>>> recorded_number("C[C@@H]1O[C@@H](SCc2cn(CCOCCNC(=O)OCCOCCOCCOCCOCCOCCOCCOCCNC(=O)CCCC[C@@H]3SC[C@@H]4NC(=O)N[C@@H]43)nn2)[C@H](O)[C@H](O)[C@H]1O")
73
>>> recorded_number("C[C@@H]1O[C@@H](OCc2cn(CCOCCNC(=O)OCCOCCOCCOCCOCCOCCOCCOCCNC(=O)CCCC[C@@H]3SC[C@@H]4NC(=O)N[C@@H]43)nn2)[C@H](O)[C@H](O)[C@H]1O")
89
>>> recorded_number("C[C@@H]1O[C@H](SCc2cn(CCOCCNC(=O)OCCOCCOCCOCCOCCOCCOCCOCCNC(=O)CCCC[C@@H]3SC[C@@H]4NC(=O)N[C@@H]43)nn2)[C@H](O)[C@H](O)[C@H]1O")
44

----------
molecular target: serum polyclonal antirhamnose antibodies (human IgG); assay: BLI affinity of rhamnose probes for polyclonal human IgG; assay type: binding; conditions: 26.2 µM IgG; read-out: Kd
pKd: −log10 of the molar value.
Measure: pKd

>>> recorded_number("C[C@@H]1O[C@H](SCc2cn(CCOCCNC(=O)OCCOCCOCCOCCOCCOCCOCCOCCNC(=O)CCCC[C@@H]3SC[C@@H]4NC(=O)N[C@@H]43)nn2)[C@H](O)[C@H](O)[C@H]1O")
4.54
>>> recorded_number("C[C@@H]1O[C@@H](SCc2cn(CCOCCNC(=O)OCCOCCOCCOCCOCCOCCOCCOCCNC(=O)CCCC[C@@H]3SC[C@@H]4NC(=O)N[C@@H]43)nn2)[C@H](O)[C@H](O)[C@H]1O")
4.30
>>> recorded_number("C[C@@H]1O[C@@H](OCc2cn(CCOCCNC(=O)OCCOCCOCCOCCOCCOCCOCCOCCNC(=O)CCCC[C@@H]3SC[C@@H]4NC(=O)N[C@@H]43)nn2)[C@H](O)[C@H](O)[C@H]1O")
4.24

----------
Measured Kd accompanies every entry in the list below.
target: monoclonal anti-23F antibody; test: BLI affinity of rhamnose probes for monoclonal anti-23F; assay type: binding, human; settings: 125 nM Anti-23F; read-out: Kd
Measure: Kd

>>> result("C[C@@H]1O[C@@H](OCc2cn(CCOCCNC(=O)OCCOCCOCCOCCOCCOCCOCCOCCNC(=O)CCCC[C@@H]3SC[C@@H]4NC(=O)N[C@@H]43)nn2)[C@H](O)[C@H](O)[C@H]1O")
"5.2 µM"
>>> result("C[C@@H]1O[C@@H](SCc2cn(CCOCCNC(=O)OCCOCCOCCOCCOCCOCCOCCOCCNC(=O)CCCC[C@@H]3SC[C@@H]4NC(=O)N[C@@H]43)nn2)[C@H](O)[C@H](O)[C@H]1O")
"5.2 µM"

----------
Below, each entry is listed alongside its reported pKd.
target: serum polyclonal antirhamnose antibodies (human IgG); assay: BLI affinity of rhamnose probes for polyclonal human IgG; format: binding; conditions: 105 µM IgG; read-out: Kd
pKd: −log10 of the molar value.
Measure: pKd

>>> recorded_number("C[C@@H]1O[C@@H](SCc2cn(CCOCCNC(=O)OCCOCCOCCOCCOCCOCCOCCOCCNC(=O)CCCC[C@@H]3SC[C@@H]4NC(=O)N[C@@H]43)nn2)[C@H](O)[C@H](O)[C@H]1O")
4.00
>>> recorded_number("C[C@@H]1O[C@H](SCc2cn(CCOCCNC(=O)OCCOCCOCCOCCOCCOCCOCCOCCNC(=O)CCCC[C@@H]3SC[C@@H]4NC(=O)N[C@@H]43)nn2)[C@H](O)[C@H](O)[C@H]1O")
4.21
>>> recorded_number("C[C@@H]1O[C@@H](OCc2cn(CCOCCNC(=O)OCCOCCOCCOCCOCCOCCOCCOCCNC(=O)CCCC[C@@H]3SC[C@@H]4NC(=O)N[C@@H]43)nn2)[C@H](O)[C@H](O)[C@H]1O")
3.89
